Quick reference: Emax of the listed items.
Test system: human V2 receptor (Homo sapiens)
Construct: expressed in transfected cells
Sequence (P30518 whole entry): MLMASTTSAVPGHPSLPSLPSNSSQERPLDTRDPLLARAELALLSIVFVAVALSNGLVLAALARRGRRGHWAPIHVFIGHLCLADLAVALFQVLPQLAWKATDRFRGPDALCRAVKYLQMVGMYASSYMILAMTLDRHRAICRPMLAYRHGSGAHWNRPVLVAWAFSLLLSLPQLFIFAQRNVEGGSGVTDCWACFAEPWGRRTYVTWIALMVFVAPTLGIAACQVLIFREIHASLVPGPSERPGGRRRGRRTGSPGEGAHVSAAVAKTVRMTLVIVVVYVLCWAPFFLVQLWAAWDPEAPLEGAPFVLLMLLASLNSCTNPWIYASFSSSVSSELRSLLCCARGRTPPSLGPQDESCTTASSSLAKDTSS
Protocol description: Calcium flux assay (FLIPR), agonist mode, CHO cells expressing human V2 + Gqs5
Assay type: cell-based
Condition: CHO; maximum response normalized to endogenous full agonist = 100%; read-out: hV2 efficacy (%)
Positions of bridges follow the written chain, without caps; N, C: chain ends. Non-standard residues stand in square brackets, D forms with d. Residues, ends and D or L forms follow the SMILES beside them. Phe(4-NH2) = Nc1ccc(C[C@H](N)C(=O)O)cc1; Hyp = O=C(O)[C@@H]1C[C@@H](O)CN1; Cha = N[C@@H](CC1CCCCC1)C(=O)O; aThr = C[C@H](O)[C@H](N)C(=O)O; Tle = CC(C)(C)[C@H](N)C(=O)O; Nle = CCCC[C@H](N)C(=O)O; Sar = CNCC(=O)O
Report only the number, with the unit % understood.

Would you please look over these solved cases?
Compound	Emax [%]
CC[C@H](C)[C@@H]1NC(=O)[C@H](Cc2ccc(O)cc2)NC(=O)CNC(=O)CC[C@@H](C(=O)N(C)CC(=O)N[C@@H](CC2CCCCC2)C(=O)NCC(N)=O)NC(=O)[C@H](CC(N)=O)NC(=O)[C@H](CCC(N)=O)NC1=O [Example 39] (GYIQNE[Sar][Cha]G-NH2; lactam N-6)	111
CC[C@H](C)[C@@H]1NC(=O)[C@H](Cc2ccc(O)cc2)NC(=O)CNC(=O)CC[C@@H](C(=O)N(C)CC(=O)N[C@@H](Cc2ccccc2)C(=O)NCC(N)=O)NC(=O)[C@H](CC(N)=O)NC(=O)[C@H](CCC(N)=O)NC1=O [Example 27] (GYIQNE[Sar]FG-NH2; lactam N-6)	101

### Prompt Identify the reported Emax for the following entry. CC[C@H](C)[C@@H]1NC(=O)[C@H](Cc2ccc(O)cc2)NC(=O)CNC(=O)CC[C@@H](C(=O)N(C)CC(=O)N[C@@H](Cc2ccc(N)cc2)C(=O)NCC(N)=O)NC(=O)[C@H](CC(N)=O)NC(=O)[C@H](CCC(N)=O)NC1=O [Example 1] (GYIQNE[Sar][Phe(4-NH2)]G-NH2; lactam N-6)
### Response 107

### Prompt Identify the reported Emax for the following entry. CC[C@H](C)[C@@H]1NC(=O)[C@H](Cc2ccc(O)cc2)NC(=O)CNC(=O)CC[C@@H](C(=O)N(C)CC(=O)N[C@@H](CCC(=O)O)C(=O)NCC(N)=O)NC(=O)[C@H](CC(N)=O)NC(=O)[C@H](CCC(N)=O)NC1=O [Example 29] (GYIQNE[Sar]EG-NH2; lactam N-6)
### Response 39

### Prompt Identify the reported Emax for the following entry. CC[C@H](C)[C@@H]1NC(=O)[C@H](Cc2ccc(O)cc2)NC(=O)CNC(=O)CC[C@@H](C(=O)N2C[C@H](O)C[C@H]2C(=O)N[C@@H](CC(C)C)C(=O)NCC(N)=O)NC(=O)[C@H](CC(N)=O)NC(=O)[C@H](CCC(N)=O)NC1=O [Example 45] (GYIQNE[Hyp]LG-NH2; lactam N-6)
### Response 91

### Prompt Identify the reported Emax for the following entry. CC[C@H](C)[C@@H]1NC(=O)[C@H](Cc2ccc(O)cc2)NC(=O)CNC(=O)CC[C@@H](C(=O)N(C)CC(=O)N[C@H](C(=O)NCC(N)=O)C(C)(C)C)NC(=O)[C@H](CC(N)=O)NC(=O)[C@H](CCC(N)=O)NC1=O [Example 44] (GYIQNE[Sar][Tle]G-NH2; lactam N-6)
### Response 112

### Prompt Identify the reported Emax for the following entry. CC[C@H](C)[C@@H]1NC(=O)[C@H](Cc2ccc(O)cc2)NC(=O)CNC(=O)CC[C@@H](C(=O)N2CCC[C@H]2C(=O)N[C@@H](CC(C)C)C(=O)NCC(N)=O)NC(=O)[C@H](CC(N)=O)NC(=O)[C@H](CCC(N)=O)NC1=O [Example 24] (GYIQNEPLG-NH2; lactam N-6)
### Response 98

### Prompt Identify the reported Emax for the following entry. CCCC[C@H](NC(=O)CN(C)C(=O)[C@@H]1CCC(=O)NCC(=O)N[C@@H](Cc2ccc(O)cc2)C(=O)N[C@@H]([C@@H](C)CC)C(=O)N[C@@H](CCC(N)=O)C(=O)N[C@@H](CC(N)=O)C(=O)N1)C(=O)NCC(N)=O [Example 40] (GYIQNE[Sar][Nle]G-NH2; lactam N-6)
### Response 117

### Prompt Identify the reported Emax for the following entry. CC[C@H](C)[C@@H]1NC(=O)[C@H](Cc2ccc(N)cc2)NC(=O)CNC(=O)CC[C@@H](C(=O)N(C)CC(=O)N[C@@H](CC(C)C)C(=O)NCC(N)=O)NC(=O)[C@H](CC(N)=O)NC(=O)[C@H](CCC(N)=O)NC1=O [Example 2] (G[Phe(4-NH2)]IQNE[Sar]LG-NH2; lactam N-6)
### Response 74

### Prompt Identify the reported Emax for the following entry. CC[C@H](C)[C@@H]1NC(=O)[C@H](Cc2ccc(O)cc2)NC(=O)CNC(=O)CC[C@@H](C(=O)N(C)CC(=O)N[C@@H](CC(C)C)C(=O)NCC(N)=O)NC(=O)[C@H](CC(N)=O)NC(=O)[C@H](CCC(N)=O)NC1=O [Example 13] (GYIQNE[Sar]LG-NH2; lactam N-6)
### Response 97

### Prompt Identify the reported Emax for the following entry. CC[C@H](C)[C@@H]1NC(=O)[C@H](Cc2ccc(O)cc2)NC(=O)CNC(=O)CC[C@@H](C(=O)N(C)CC(=O)N[C@@H](CCC(N)=O)C(=O)NCC(N)=O)NC(=O)[C@H](CC(N)=O)NC(=O)[C@H](CCC(N)=O)NC1=O [Example 31] (GYIQNE[Sar]QG-NH2; lactam N-6)
### Response 91

### Prompt Identify the reported Emax for the following entry. CC[C@H](C)[C@@H]1NC(=O)[C@H](Cc2ccc(O)cc2)NC(=O)CNC(=O)CC[C@@H](C(=O)N(C)CC(=O)N[C@@H](CCSC)C(=O)NCC(N)=O)NC(=O)[C@H](CC(N)=O)NC(=O)[C@H](CCC(N)=O)NC1=O [Example 35] (GYIQNE[Sar]MG-NH2; lactam N-6)
### Response 104

### Prompt Identify the reported Emax for the following entry. CC[C@H](C)[C@@H]1NC(=O)[C@H](Cc2ccc(O)cc2)NC(=O)CNC(=O)CC[C@@H](C(=O)N(C)CC(=O)N[C@H](C(=O)NCC(N)=O)[C@H](C)O)NC(=O)[C@H](CC(N)=O)NC(=O)[C@H](CCC(N)=O)NC1=O [Example 25] (GYIQNE[Sar][aThr]G-NH2; lactam N-6)
### Response 103

// data source = patent US9868766B2
